From: patent US9365522B2

- TESTED_TARGET: ligand binding domain of human ROR gamma (Homo sapiens)
- Construct: NM_001001523; expressed in transfected cells; host or cells: HEK293T
- Sequence (P51449 247-497 isoform P51449-2): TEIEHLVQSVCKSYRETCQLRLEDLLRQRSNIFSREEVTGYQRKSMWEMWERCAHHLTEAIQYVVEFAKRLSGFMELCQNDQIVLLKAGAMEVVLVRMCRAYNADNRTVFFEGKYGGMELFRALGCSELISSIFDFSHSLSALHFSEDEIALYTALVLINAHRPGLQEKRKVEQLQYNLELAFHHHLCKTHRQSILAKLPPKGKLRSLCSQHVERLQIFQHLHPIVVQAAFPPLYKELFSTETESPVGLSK
- ASSAY_METHOD_TEXT: ROR gamma reporter gene assay (GAL4-RORγ LBD luciferase, Dual-Glo)
- Type: cell-based
- REPORTED_CONDITIONS: HEK293T cells transfected with pM-ROR gamma, 8 concentrations 3.5 nM to 10.5 μM, 24 h incubation; read-out: result (pIC50, inhibition of RORγ transcriptional activity) (converted)
READOUT_NAME: log10(IC50) (log10 of the value in pM)

COC(CN(Cc1cc(F)cc(F)c1)C(=O)c1cnn([C@H]2CC[C@H](C(=O)O)CC2)c1C(F)(F)F)c1c(Cl)cncc1Cl (stereo partly drawn) : 5.80
O=C(CN(Cc1cc(F)cc(F)c1)C(=O)c1cnn([C@H]2CC[C@H](C(=O)O)CC2)c1C(F)(F)F)c1c(O)cccc1Cl : 4.98
CC(C)(C)CCN(CC(=O)c1c(Cl)cncc1Cl)C(=O)c1cnn([C@H]2CC[C@H](C(=O)O)CC2)c1C(F)(F)F : 5.05
Cc1cc(Cl)c(C(=O)CN(CC2(F)CCCC2)C(=O)c2cnn([C@H]3CC[C@](C)(C(=O)O)CC3)c2C(F)(F)F)c(Cl)c1 : 3.53
O=C(CN(Cc1cc(F)cc(F)c1)C(=O)c1cnn([C@H]2CC[C@H](C(=O)O)CC2)c1C(F)(F)F)c1c(Cl)cc(C(F)F)cc1Cl : 4.07
CC1(C)[C@@H]2C[C@H](N(C[C@H](O)c3ccccc3Cl)C(=O)c3cnn([C@H]4CC[C@](C)(C(=O)O)CC4)c3C(F)(F)F)C[C@@H]21 : 5.28

---

- TESTED_TARGET: ligand binding domain of human ROR gamma (Homo sapiens, UniProt P51449)
- Construct: NM_001001523; expressed in transfected cells; host or cells: HEK293T
- ASSAY_METHOD_TEXT: ROR gamma reporter gene assay (GAL4-RORγ LBD luciferase, Dual-Glo)
- Format: cell-based
- REPORTED_CONDITIONS: HEK293T cells transfected with pM-ROR gamma, 8 concentrations 3.5 nM to 10.5 μM, 24 h incubation; read-out: result (pIC50, inhibition of RORγ transcriptional activity) (converted)
- Description: Luciferase reporter gene assay was used to assess inhibition of RORγ transcriptional activity. ROR gamma expression vector was prepared by inserting the ligand binding domain of human ROR gamma (amino acid 247-497 of Genbank Accession NO. NM_001001523) adjacent to the yeast GAL4 transcription factor DNA binding domain in the expression vector pM (Clontech). […] Data was plotted and pIC50 values were calculated using the XLfit program (ID Business Solutions Ltd.).
// values below are reported IC50
READOUT_NAME: IC50

CC(CN(Cc1cc(F)cc(F)c1)C(=O)c1cnn([C@H]2CC[C@H](C(=O)O)CC2)c1C(F)(F)F)c1c(Cl)cccc1Cl (stereo partly drawn) [Example 108] : 324000 pM
CC(C)(C)OC1CC(CN(CC(=O)c2c(Cl)cncc2Cl)C(=O)c2cnn([C@H]3CC[C@](C)(C(=O)O)CC3)c2C(F)(F)F)C1 (stereo partly drawn) [Example 344] : 1.58e+06 pM
COc1cc(Cl)cc(Cl)c1C(=O)CN(Cc1cc(F)cc(F)c1)C(=O)c1cnn([C@H]2CC[C@H](C(=O)O)CC2)c1C(F)(F)F [Example 112] : 61700 pM

---

- TESTED_TARGET: human RORγ-LBD (Homo sapiens)
- Construct: made in house; host or cells: E. coli (BL-21)
- ASSAY_METHOD_TEXT: ROR gamma coactivator peptide recruitment Alphascreen assay (RORγ-LBD binding to GRIP1 coactivator peptide)
- Assay type: biochemical
- REPORTED_CONDITIONS: 5 nM human RORγ-LBD, 30 nM 7-β-hydroxycholesterol, 50 nM biotinylated GRIP1 coactivator peptide, overnight incubation at room temperature; read-out: result (pIC50, RORγ coactivator peptide recruitment Alphascreen assay) (converted)
READOUT_NAME: IC50 (nM)

C[C@@H]1C[C@@H](n2ncc(C(=O)N(CC(=O)c3c(Cl)cncc3Cl)CC3CCC4(CC3)CC4)c2C(F)(F)F)CC[C@@H]1C(=O)O : 891
CC(C)CCN(CC(=O)c1c(Cl)cncc1Cl)C(=O)c1cnn([C@H]2CC[C@H](C(=O)O)[C@H](C)C2)c1C(F)(F)F : 63.1
C[C@]1(CN(CC(=O)c2c(Cl)ccc(F)c2Cl)C(=O)c2cnn([C@H]3CC[C@](C)(C(=O)O)CC3)c2C(F)(F)F)CCCO1 : 9.12
CC(C)(C)CN(CC(=O)c1c(Cl)cncc1Cl)C(=O)c1cnn([C@H]2CC[C@@H](CS(C)(=O)=O)CC2)c1C(F)(F)F : 195
C[C@]1(C(=O)O)CC[C@H](n2ncc(C(=O)N3C[C@H](C4CCCCC4)C[C@@H]3C(=O)c3c(Cl)cncc3Cl)c2C(F)(F)F)CC1 (single isomer, unassigned) : 5890
CC1(C)[C@@H]2C[C@H](N(CC(=O)c3c(Cl)cncc3Cl)C(=O)c3cnn([C@H]4CC[C@](C)(C(=O)O)CC4)c3C(F)(F)F)C[C@@H]21 : 2.45

---

- TESTED_TARGET: human RORγ-LBD (Homo sapiens)
- Construct: made in house; host or cells: E. coli (BL-21)
- ASSAY_METHOD_TEXT: ROR gamma coactivator peptide recruitment Alphascreen assay (RORγ-LBD binding to GRIP1 coactivator peptide)
- Type: biochemical
- REPORTED_CONDITIONS: 5 nM human RORγ-LBD, 30 nM 7-β-hydroxycholesterol, 50 nM biotinylated GRIP1 coactivator peptide, overnight incubation at room temperature; read-out: result (pIC50, RORγ coactivator peptide recruitment Alphascreen assay) (converted)
READOUT_NAME: IC50 (nM)

CC1(C)C[C@H](CN(CC(=O)c2c(Cl)cccc2Cl)C(=O)c2cnn([C@H]3CC[C@](C)(C(=O)O)CC3)c2C(F)(F)F)O1 [Example 601] : 42.7
C[C@@H]1C[C@H](n2ncc(C(=O)N(CC(=O)c3c(Cl)cncc3Cl)CC(C)(C)C)c2C(F)(F)F)CC[C@H]1C(=O)O [Example 812] : 9.33
C[C@H]1C[C@H](n2ncc(C(=O)N(CC(=O)c3c(Cl)cccc3Cl)CC3CC(C)(C)C3)c2C(F)(F)F)CC[C@H]1C(=O)O : 7.08
CC(C)(C)CN(CC(=O)c1c(Cl)cncc1Cl)C(=O)c1cnn([C@H]2CC[C@H](CC(=O)O)CC2)c1C(F)(F)F : 6.03
CC(C)(C)CN(CC(=O)c1c(Cl)cccc1Cl)C(=O)c1cnn([C@H]2CC[C@@H](C(=O)O)CC2)c1C(F)(F)F : 21.9
C[C@H]1C[C@@H](n2ncc(C(=O)N(CC(=O)c3c(Cl)cncc3Cl)CC(C)(C)C)c2C(F)(F)F)CC[C@]1(C)C(=O)O : 5.25

---

Below, each entry is listed alongside its reported IC50.
- TESTED_TARGET: ligand binding domain of human ROR gamma (Homo sapiens, UniProt P51449)
- Construct: NM_001001523; expressed in transfected cells; host or cells: HEK293T
- ASSAY_METHOD_TEXT: ROR gamma reporter gene assay (GAL4-RORγ LBD luciferase, Dual-Glo)
- Assay type: cell-based
- REPORTED_CONDITIONS: HEK293T cells transfected with pM-ROR gamma, 8 concentrations 3.5 nM to 10.5 μM, 24 h incubation; read-out: result (pIC50, inhibition of RORγ transcriptional activity) (converted)
READOUT_NAME: IC50 (pM)

C[C@]1(C(=O)O)CC[C@H](n2ncc(C(=O)N(CC(=O)c3c(Cl)cncc3Cl)Cc3cc(F)cc(F)c3)c2C(F)F)CC1 [Example 178] : 4.37e+06
CC(C)(C)CN(CC(=O)c1c(Cl)cc(F)cc1Cl)C(=O)c1cnn([C@H]2CC[C@](C)(C(=O)O)CC2)c1C(F)(F)F [Example 94] : 8320
CC(C)(C)OCCN(CC(=O)c1c(Cl)cc(F)cc1Cl)C(=O)c1cnn([C@H]2CC[C@](C)(C(=O)O)CC2)c1C(F)(F)F [Example 292] : 47900
CC(C)(F)CN(CC(=O)c1c(Cl)cncc1Cl)C(=O)c1cnn(C23CCC(C(=O)O)(CC2)CC3)c1C(F)(F)F [Example 327] : 97700
CC(C)=CCN(CC(=O)c1c(Cl)cncc1Cl)C(=O)c1cnn([C@H]2CC[C@H](C(=O)O)CC2)c1C(F)(F)F [Example 35] : 112000
O=C(CN(C(=O)c1cnn([C@H]2CC[C@H](C(=O)O)CC2)c1C(F)(F)F)C1CC2CCC1C2)c1c(Cl)cncc1Cl (stereo partly drawn) [Example 215] : 32400
